system: SK-BR-3; experiment: Antiproliferative activity against human SK-BR-3 cells assessed as cell growth inhibition incubated for 72 hrs by MTS assay; assay type: functional, cell-based; conditions: SK-BR-3, 72 h
value_kind: pIC50
By convention, pIC50 is the negative base-10 log of a molar concentration.

Query: Form field: reported pIC50 of COc1cc(C(=O)c2cccc(-c3ccc(C)cc3)n2)cc(OC)c1OC
Response: 8.38

Query: Reported pIC50 for COc1cc(C(=O)c2ccnc(-c3c[nH]c4ccccc34)n2)cc(OC)c1OC : what is it?
Response: 7.77

Query: Reported pIC50, compound CCc1c(OC)cc(C(=O)c2cccc(-c3ccc(C)c(O)c3)n2)cc1OC : ____
Response: 8.00

Query: So what does the record say about pIC50 for COc1cc(C(=O)c2cncc(-c3cccc4[nH]ncc34)n2)cc(OC)c1OC ?
Response: 7.34

Query: For the compound shown here, COc1cc(C(=O)c2c[nH]c(-c3ccc(C)c(O)c3)n2)cc(OC)c1OC , give the reported pIC50.
Response: 7.24

Query: Which pIC50 reading was recorded for the compound COc1cc(C(=O)c2cc(C)cc(-c3ccc(C)c(N)c3)n2)cc(OC)c1OC ?
Response: 8.46

Query: Would you kindly share the measured pIC50 for COc1cc(C(=O)c2cc(OC)c(OC)c(OC)c2)nc(-c2ccc(C)c(O)c2)c1 ?
Response: 7.77

Query: What does the data say about its pIC50? Entry: COc1cc(C(=O)c2nc(-c3ccc(C(F)F)cc3)ccc2F)cc(OC)c1OC
Response: 8.62

Query: What does the record list as pIC50 for COc1cc(C(=O)c2cccc(-c3ccc4c(c3)CCN4)n2)cc(OC)c1OC ?
Response: 8.26

Query: pIC50 lookup needed for COc1cc(-n2ccc3ccc(-c4ccc(C)cc4)nc32)cc(OC)c1OC , thanks.
Response: 7.08

Query: Suppose we examine the compound COc1cc(-c2n[nH]c3ccc(-c4ccc(C)c(O)c4)nc23)cc(OC)c1OC ; what pIC50 value has been reported?
Response: 7.18

Query: Sample COc1cc(C(=O)c2ccnc(-c3ccc(C)c(O)c3)n2)cc(OC)c1OC — what was its pIC50?
Response: 7.92

Query: Which pIC50 value is on record for COc1cc(C(=O)c2cccc(-c3ccc(C)cc3)n2)cc2c1OCCO2 ?
Response: 8.49

Query: Give the measured pIC50 of COc1cc(C(=O)c2nc(-c3ccc(C)c(O)c3)[nH]c2Br)cc(OC)c1OC .
Response: 6.92

Query: Would you mind telling me what pIC50 value was observed for COc1cc(C(=O)c2cncc(-c3c[nH]c4ccccc34)n2)cc(OC)c1OC ?
Response: 7.46
